test system: TE-441-T; test: cells; type: functional, cell-based, Homo sapiens; conditions: Homo sapiens, TE-441-T
Description: SANGER: Inhibition of human TE-441-T cell growth in a cell viability assay.
Where a name gives a salt, the structure may show the parent alone.
Please go through the items and note down their IC50.
Give the number; µM is assumed, so skip it.

Task: Name the reported IC50 value associated with the molecule COC1=CC(c2cc3ccccc3[nH]2)=N/C1=C\c1[nH]c(C)cc1C [OBATOCLAX MESYLATE]
Result: 1.43

Task: Name the reported IC50 value associated with the molecule Cc1cc([N+](=O)[O-])ccc1NS(=O)(=O)c1cc(Cl)ccc1Cl
Result: 7.31

Task: Name the reported IC50 value associated with the molecule N[C@@H](CSC(c1ccccc1)(c1ccccc1)c1ccccc1)C(=O)O [S-TRITYL-L-CYSTEINE]
Result: 4.79

----------
tested on: NCI-H2291; experiment: cells; assay type: functional, cell-based, Homo sapiens; conditions: Homo sapiens, NCI-H2291
Description: SANGER: Inhibition of human NCI-H2291 cell growth in a cell viability assay.
pIC50: −log10 of the molar value.
Please go through the items and note down their pIC50.

Task: What is its pIC50 for NCI-H2291? Entry: CN(C)C(=N)NC(=N)N
Result: < 1.70

Task: What is its pIC50 for NCI-H2291? Entry: COc1cc2c(Nc3ccc(NC(=O)c4ccccc4)cc3)ncnc2cc1OCCCN1CCOCC1
Result: < 5.40

Task: What is its pIC50 for NCI-H2291? Entry: Cn1cnc2c(F)c(Nc3ccc(Br)cc3Cl)c(C(=O)NOCCO)cc21
Result: 6.12

----------
tested on: SW1990; assay: cells; type: functional, cell-based, Homo sapiens; settings: Homo sapiens, SW1990;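 further: cell growth inhibition determined with a viability assay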
Description: SANGER: Inhibition of human SW1990 cell growth in a cell viability assay.
Please go through the items and note down their IC50.

Task: Name the reported IC50 value associated with the compound O=C(O)c1ccc(-c2c[nH]c3ncc(-c4ccccc4)cc23)cc1C1CCCC1
Result: > 16 µM

Task: Name the reported IC50 value associated with the compound CO[C@H]1C[C@@H]2CC[C@@H](C)[C@@](O)(O2)C(=O)C(=O)N2CCCC[C@H]2C(=O)O[C@H]([C@H](C)C[C@@H]2CC[C@@H](OC(=O)C(C)(CO)CO)[C@H](OC)C2)CC(=O)[C@H](C)/C=C(\C)[C@@H](O)[C@@H](OC)C(=O)[C@H](C)C[C@H](C)/C=C/C=C/C=C/1C
Result: > 0.2 µM

Task: Name the reported IC50 value associated with the compound Cc1cc([N+](=O)[O-])ccc1NS(=O)(=O)c1cc(Cl)ccc1Cl
Result: 5.38 µM

Task: Name the reported IC50 value associated with the compound Cc1cn(-c2cc(NC(=O)c3ccc(C)c(Nc4nccc(-c5cccnc5)n4)c3)cc(C(F)(F)F)c2)cn1
Result: > 2 µM

----------
tested on: KYSE-270; test: cells; assay type: functional, cell-based, Homo sapiens; details: Homo sapiens, KYSE-270;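 further: cell growth inhibition measured with a viability assay in the human KYSE-270 line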
Description: SANGER: Inhibition of human KYSE-270 cell growth in a cell viability assay.
quantity: IC50

Task: Name the reported IC50 value associated with the compound CC(C)c1ccccc1Cc1cc(C(=O)Nc2ccc(S(=O)(=O)c3ccccc3C(C)(C)C)cc2)c(O)c(O)c1O
Result: 1.08 µM

Task: Name the reported IC50 value associated with the compound COc1cc2c(Nc3ccc(NC(=O)c4ccccc4)cc3)ncnc2cc1OCCCN1CCOCC1
Result: > 4 µM

Task: Name the reported IC50 value associated with the compound CO[C@H]1C[C@@H]2CC[C@@H](C)[C@@](O)(O2)C(=O)C(=O)N2CCCC[C@H]2C(=O)O[C@H]([C@H](C)C[C@@H]2CC[C@@H](OC(=O)C(C)(CO)CO)[C@H](OC)C2)CC(=O)[C@H](C)/C=C(\C)[C@@H](O)[C@@H](OC)C(=O)[C@H](C)C[C@H](C)/C=C/C=C/C=C/1C [TEMSIROLIMUS]
Result: 0.164 µM

Task: Name the reported IC50 value associated with the compound CN(C)C(=N)NC(=N)N [METFORMIN]
Result: > 20000 µM

----------
test system: SNU-C2B; assay: cells; assay type: functional, cell-based, Homo sapiens; settings: Homo sapiens, SNU-C2B;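 further: cell viability readout used to measure compound-driven suppression of SNU-C2B cell proliferation, IC50 marking half-maximal growth inhibition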
Description: SANGER: Inhibition of human SNU-C2B cell growth in a cell viability assay.
Please go through the items and note down their IC50.
Give the number; µM is assumed, so skip it.

Task: Name the reported IC50 value associated with the compound OCCCNc1cc(-c2ccnc(Nc3cccc(Cl)c3)n2)ccn1
Result: 0.104

Task: Name the reported IC50 value associated with the compound CC(C)CCN1c2nc(Nc3cc(F)c(O)c(F)c3)ncc2N(C)C(=O)C1C (centres undefined)
Result: 3.39

----------
system: HT-144; assay: cells; type: functional, cell-based, Homo sapiens; details: Homo sapiens, HT-144
Description: SANGER: Inhibition of human HT-144 cell growth in a cell viability assay.
pIC50: −log10 of the molar value.
quantity: pIC50

Task: Name the reported pIC50 value associated with the compound C#Cc1cccc(Nc2ncnc3cc(OCCOC)c(OCCOC)cc23)c1
Result: < 5.70

Task: Name the reported pIC50 value associated with the compound Cc1cc([N+](=O)[O-])ccc1NS(=O)(=O)c1cc(Cl)ccc1Cl
Result: 5.53

Task: Name the reported pIC50 value associated with the compound COc1cc2c(Nc3ccc(NC(=O)c4ccccc4)cc3)ncnc2cc1OCCCN1CCOCC1
Result: < 5.40

Task: Name the reported pIC50 value associated with the compound CS(=O)(=O)c1ccc(C(=O)Nc2ccc(Cl)c(-c3ccccn3)c2)c(Cl)c1
Result: < 5.00

Task: Name the reported pIC50 value associated with the compound CCC/C=C/C=C/C(=O)O[C@H]1/C(=C/C(=O)OC)C[C@H]2C[C@H]([C@@H](C)O)OC(=O)C[C@H](O)C[C@@H]3C[C@H](OC(C)=O)C(C)(C)[C@](O)(C[C@@H]4C/C(=C/C(=O)OC)C[C@H](/C=C/C(C)(C)[C@]1(O)O2)O4)O3
Result: < 8.10

Task: Name the reported pIC50 value associated with the compound COc1cc2ncn(-c3cc(OCc4ccccc4C(F)(F)F)c(C(N)=O)s3)c2cc1OC [GW843682X]
Result: 7.79

Task: Name the reported pIC50 value associated with the compound N#Cc1c(O)c2c(-c3ccc(-c4ccccc4O)cc3)csc2[nH]c1=O
Result: < 5.99

Task: Name the reported pIC50 value associated with the compound CC(C)CCN1c2nc(Nc3cc(F)c(O)c(F)c3)ncc2N(C)C(=O)C1C (stereo unspecified)
Result: < 5.30

Task: Name the reported pIC50 value associated with the compound CCN(CC)CCCCNc1ncc2cc(-c3cc(OC)cc(OC)c3)c(NC(=O)NC(C)(C)C)nc2n1
Result: < 5.70

Task: Name the reported pIC50 value associated with the compound CC[C@H](CO)Nc1nc(NCc2ccccc2)c2ncn(C(C)C)c2n1
Result: < 4.80

Task: Name the reported pIC50 value associated with the compound Oc1ccc2ccccc2c1SSc1c(O)ccc2ccccc12
Result: < 4.49

----------
system: NCI-H747; assay: cells; format: functional, cell-based, Homo sapiens; settings: Homo sapiens, NCI-H747;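 further: growth inhibition of human NCI-H747 cells, read out by a cell viability assay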
Description: SANGER: Inhibition of human NCI-H747 cell growth in a cell viability assay.
quantity: IC50

Task: Name the reported IC50 value associated with the compound Cc1ccc(-c2c(C(=O)CCl)n(CCCO)c3ncnc(N)c23)cc1
Result: > 4000 nM

Task: Name the reported IC50 value associated with the compound Cn1cnc2c(F)c(Nc3ccc(Br)cc3Cl)c(C(=O)NOCCO)cc21
Result: 351 nM

Task: Name the reported IC50 value associated with the compound Nc1ccn([C@@H]2O[C@H](CO)[C@@H](O)C2(F)F)c(=O)n1
Result: 42.3 nM

Task: Name the reported IC50 value associated with the compound COc1cc2ncn(-c3cc(OCc4ccccc4S(C)(=O)=O)c(C#N)s3)c2cc1OC [GSK-319347A]
Result: > 5000 nM

Task: Name the reported IC50 value associated with the compound COc1cc(-c2nn([C@H]3CC[C@H](N4CCN(C(C)=O)CC4)CC3)c3ncnc(N)c23)ccc1NC(=O)c1cc2ccccc2n1C
Result: 2860 nM

Task: Name the reported IC50 value associated with the compound C=C(c1ccc(C(=O)O)cc1)c1cc2c(cc1C)C(C)(C)CCC2(C)C
Result: > 8000 nM

Task: Name the reported IC50 value associated with the compound O=C(O)c1ccc(-c2c[nH]c3ncc(-c4ccccc4)cc23)cc1C1CCCC1
Result: > 16000 nM

Task: Name the reported IC50 value associated with the compound Cc1cn(-c2cc(NC(=O)c3ccc(C)c(Nc4nccc(-c5cccnc5)n4)c3)cc(C(F)(F)F)c2)cn1
Result: > 2000 nM

Task: Name the reported IC50 value associated with the compound CC1(C)CNc2cc(NC(=O)c3cccnc3NCc3ccncc3)ccc21
Result: > 2000 nM

Task: Name the reported IC50 value associated with the compound COc1cc(N2CCN(C)CC2)ccc1Nc1ncc2c(n1)N(C)c1ccccc1C(=O)N2C
Result: > 8000 nM

----------
test system: KARPAS-45; assay: cells; type: functional, cell-based, Homo sapiens; settings: Homo sapiens, KARPAS-45;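 further: inhibition of cell line growth, read out through a viability assay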
Description: SANGER: Inhibition of human KARPAS-45 cell growth in a cell viability assay.
Please go through the items and note down their pIC50.
Scale: pIC50 equals -log10([C]), with [C] in mol/L.

Task: Name the reported pIC50 value associated with the compound N[C@@H](CSC(c1ccccc1)(c1ccccc1)c1ccccc1)C(=O)O [S-TRITYL-L-CYSTEINE]
Result: 5.77

Task: Name the reported pIC50 value associated with the compound COc1cc(N2CCN(C)CC2)ccc1Nc1ncc2c(n1)N(C)c1ccccc1C(=O)N2C
Result: 5.40
